# experiment: Plasma pharmacokinetics after single oral dose in rats
# Format: in vivo, Sprague-Dawley (SD) rats
# condition_parameters: male, Sprague-Dawley, rat, po; text b112; SD rats, 50 mg/Kg orally, plasma
quantity: Cmax (ng/mL)
The figure you give is taken to be in ng/mL; do not add the unit.

Give the measured Cmax of CCCCc1ccc(-c2nc(C)c(-c3ccnc(NN)n3)s2)cc1 [Compound 17] . 9300

###

# experiment: PBS solubility screen (turbidometric)
# Assay type: physicochemical
# condition_parameters: aqueous buffer, kinetic from dmso stock
quantity: solubility at 2 h
Number plus unit, in that order.

In [3]: df
Out[3]:
                                        smi           quantity  result
0  CCCCc1ccc(-c2nc(C)c(-c3ccnc(NC(=N)N(C)C)n3)s2)cc1  solubility at 2 h   53 µM
1   CCCCc1ccc(-c2nc(C)c(-c3ccnc(N)n3)s2)cc1  solubility at 2 h   42 µM
2  CCCCc1ccc(-c2nc(C)c(-c3ccnc(NN)n3)s2)cc1  solubility at 2 h   55 µM
3  Cc1nc(-c2ccc(-c3ccsc3)cc2)sc1-c1ccnc(N)n1  solubility at 2 h  8.5 µM
4  Cc1nc(-c2ccc(C3=CCCC3)cc2)sc1-c1ccnc(N)n1  solubility at 2 h   35 µM

Please examine the following record next.
Give its solubility at 2 h value. Item: Cc1nc(-c2ccc(C3=CCCCC3)cc2)sc1-c1ccnc(N)n1 37 µM

###

# System: S. aureus NRS107
# experiment: MIC/MBC S. aureus strains (Table 8)
# Type: cell-based, Staphylococcus aureus
# condition_parameters: Staphylococcus aureus; Table 8; S. aureus NRS107
quantity: MIC (µg/mL)
Express your answer in µg/mL, writing the number without its unit.

Consider the compound Cc1nc(-c2ccc(C(C)(C)C)cc2)sc1-c1ccnc(NC(=N)N(C)C)n1 [Compound 58] and give its measured MIC. 8

And the next one, Cc1nc(-c2ccc(C(C)(C)C)cc2)sc1-c1ccnc(NC(=N)c2ccccn2)n1 [Compound 64] ? 64

Could you do the same for Cc1nc(-c2ccc(C(C)(C)C)cc2)sc1-c1ccnc(NC(=N)c2cccnc2)n1 [Compound 63] , please? 4

Follow-up entry: Cc1nc(-c2ccc(C(C)(C)C)cc2)sc1-c1ccnc(NCCN)n1 [Compound 54] 4

###

# experiment: Plasma pharmacokinetics after single oral dose in rats
# Assay type: in vivo, Sprague-Dawley (SD) rats
# condition_parameters: male, Sprague-Dawley, rat, plasma; Table 6; single oral dose (30 mg/Kg) to rats; read-out: MRT (mean residence time)
# Procedure: This assay has been conducted at a credited bioequivalence center (http://www.grc-me.com/pk_pd.html). Pharmacokinetic studies were performed in male naïve Sprague-Dawley (SD) rats, (three animals) following Institutional Animal Care and Use Committee guidelines. […] Plasma was isolated, and the concentration of compound 17 in plasma was determined with LC/MS/MS after protein precipitation with acetonitrile. […]
quantity: MRT (h)
Provide only the numeric value, understood in h.

I'd like to know its MRT. The molecule in question is CCCCc1ccc(-c2nc(C)c(-c3ccnc(NN)n3)s2)cc1 7.74

###

# experiment: Plasma pharmacokinetics after single oral dose in rats
# Assay type: in vivo, Sprague-Dawley (SD) rats
# condition_parameters: male, Sprague-Dawley, rat, plasma; Table 6; single oral dose (30 mg/Kg) to rats
quantity: AUC (µg·h/mL)
Value expressed in µg·h/mL; do not type the unit.

What measured AUC goes with CCCCc1ccc(-c2nc(C)c(-c3ccnc(NN)n3)s2)cc1 ? 100
